- EXPERIMENTAL TARGET: HLA-C*05:01
- TEST METHOD NOTES: IEDB peptide-MHC binding, purified MHC/direct/fluorescence; filed as Kd, often an IC50 or EC50 that approximates it; bounds were set here for any values at or beyond the usual limits of such assays
- CONDITION CONTEXT: source organism: Zaire ebolavirus
OBSERVED PROPERTY: pKd
When answering, recall that pKd equals minus log10 of the concentration in mol/L, and write that number alone.

Request: May I ask what pKd has been recorded for "LSDLCNFLV" ?
Response: 7.89

* * *

- EXPERIMENTAL TARGET: HLA-B*48:01
- TEST METHOD NOTES: IEDB peptide-MHC binding, purified MHC/direct/fluorescence; filed as Kd, often an IC50 or EC50 that approximates it; bounds were set here for any values at or beyond the usual limits of such assays
- CONDITION CONTEXT: source organism: Cowpox virus
pKd: −log10 of the molar value.
OBSERVED PROPERTY: pKd

Request: Form field - read-out: pKd; system: HLA-B*48:01; submitted item: "YTDLTYQSF"
Response: ≤ 4.70
